experiment: Dynamic light scattering of QD-peptide conjugates; format: physicochemical; conditions: DLS; 5 peptides/QD; 50 nM QD, 0.1×PBS pH 7.4, 25° C.
Where no end group is shown, it is not given here.
Exercise: for every item that follows, state its recorded HD (hydrodynamic diameter).
Provide the reading as a plain figure in nm.

Lookup: For [RRRRRRRRRFG]4-x-K′K′WP9G2H6 [(Arg9)4] , write its HD (hydrodynamic diameter).
Found: 30.7

Lookup: For [RRRRRRRRRFG]8-x-K′K′K′WP9G2H6 [(Arg9)8] , write its HD (hydrodynamic diameter).
Found: 30.9

Lookup: For [RRRRRRRRRFG]-x-hex-hex-WP9G2H6 (RRRRRRRRRFGWPPPPPPPPPGGHHHHHH; not fully specified (residue 11); also: oxime bond (x) between G11 and hexamine spacers) [(Arg9)1, functions as control] , write its HD (hydrodynamic diameter).
Found: 26.7

Lookup: For [RRRRRRRRRFG]16-x-K′K′K′K′WP9G2H6 [(Arg9)16] , write its HD (hydrodynamic diameter).
Found: 32.7

Lookup: For [(RRRRRRRRRFG)-x-hex-P9G]2-K′WGH6 (peptide RRRRRRRRRFGPPPPPPPPPG; chain KWGHHHHHH) [(Arg9)2, generation 1 dendritic wedge peptide displaying two Arg9 motifs] , write its HD (hydrodynamic diameter).
Found: 30
